Where these numbers come from: the supplement of paper PMC6555819

test system: RARa homodimer (NR concentration 270 nM); assay: PBM binding z-score (relative to random genomic background probes); higher = stronger binding; sequences stand for … in GC…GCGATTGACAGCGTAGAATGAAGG
Metric: PBM binding z-score
Returns: the value as a bare number; no unit string appended.

Please review the following examples before continuing.
Biosequence | Reading
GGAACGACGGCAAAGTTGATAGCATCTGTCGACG | -0.6
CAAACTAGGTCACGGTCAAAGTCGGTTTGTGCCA | 0.991
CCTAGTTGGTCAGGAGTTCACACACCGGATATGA | 1.42
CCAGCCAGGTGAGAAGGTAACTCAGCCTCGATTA | -0.592

Need PBM binding z-score, item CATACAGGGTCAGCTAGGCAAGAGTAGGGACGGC
0.47

Likewise for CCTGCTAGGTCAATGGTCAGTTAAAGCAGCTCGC ?
-0.34

Do the same for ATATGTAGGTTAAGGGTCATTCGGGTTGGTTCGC please
3.12

// next record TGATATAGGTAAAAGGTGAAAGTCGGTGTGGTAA
1.18

And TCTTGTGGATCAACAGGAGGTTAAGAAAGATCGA ?
-0.244

Thanks! And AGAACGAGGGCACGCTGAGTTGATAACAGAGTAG ?
-0.194

Similarly, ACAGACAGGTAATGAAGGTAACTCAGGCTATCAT ?
0.161

Likewise for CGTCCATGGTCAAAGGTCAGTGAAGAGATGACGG ?
0.504

Now consider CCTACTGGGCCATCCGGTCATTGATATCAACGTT and answer again.
-0.315

And TAGCCTAGGTCATGAGCCAGTATACCACGCGAAC ?
0.534

====

tested on: LXRa homodimer (NR concentration 270 nM); experiment: PBM binding z-score (relative to random genomic background probes); higher = stronger binding; sequences stand for … in GC…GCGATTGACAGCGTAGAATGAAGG
Metric: PBM binding z-score
Lab note: jot down the number only; don't add units.

Sample records with PBM binding z-score:
Biosequence | Target of assay | PBM binding z-score
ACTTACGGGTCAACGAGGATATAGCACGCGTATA | LXRa homodimer (NR concentration 270 nM) | 0.457
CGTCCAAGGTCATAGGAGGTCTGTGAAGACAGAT | LXRa homodimer (NR concentration 270 nM) | 0.925
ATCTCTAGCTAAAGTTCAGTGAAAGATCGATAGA | LXRa homodimer (NR concentration 270 nM) | 1.89
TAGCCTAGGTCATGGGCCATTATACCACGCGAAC | LXRa homodimer (NR concentration 270 nM) | 0.43
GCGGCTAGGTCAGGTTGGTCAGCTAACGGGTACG | LXRa homodimer (NR concentration 270 nM) | -0.172

Requested field: PBM binding z-score. Item: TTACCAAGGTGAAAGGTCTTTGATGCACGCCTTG
-0.494

What about this sequence? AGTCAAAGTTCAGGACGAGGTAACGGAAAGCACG
0.925

Also need TCATATAGGTAAAAGTTGAAAGTCGGTGTGGTAA , thanks.
0.41

Another sequence: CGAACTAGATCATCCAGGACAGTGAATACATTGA
0.195

# repeat for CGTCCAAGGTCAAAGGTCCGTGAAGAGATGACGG
0.823

Another sequence to look at: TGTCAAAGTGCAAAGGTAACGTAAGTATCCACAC
-0.525

Item: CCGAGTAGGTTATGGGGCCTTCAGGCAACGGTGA
-0.191

One more sequence: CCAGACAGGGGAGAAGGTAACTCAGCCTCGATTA
-0.147
